# ASSAYED TARGET: human GPR84 (Homo sapiens, UniProt Q9NQS5)
# Sequence (Q9NQS5 whole entry): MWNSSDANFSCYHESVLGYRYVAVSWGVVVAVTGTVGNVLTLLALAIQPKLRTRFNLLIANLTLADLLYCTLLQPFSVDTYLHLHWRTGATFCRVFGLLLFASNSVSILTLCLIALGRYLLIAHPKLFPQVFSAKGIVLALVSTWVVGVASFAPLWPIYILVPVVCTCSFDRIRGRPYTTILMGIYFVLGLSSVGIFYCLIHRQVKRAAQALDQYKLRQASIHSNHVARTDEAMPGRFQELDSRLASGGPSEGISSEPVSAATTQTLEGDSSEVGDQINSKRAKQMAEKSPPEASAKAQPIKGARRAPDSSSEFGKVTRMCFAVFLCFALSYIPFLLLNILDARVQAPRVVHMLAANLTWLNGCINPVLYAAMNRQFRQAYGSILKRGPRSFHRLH
# ASSAY PROTOCOL: cell-based
# Format: cell-based
# APPLIED CONDITIONS: read-out: efficacy (Emax), cAMP assay
MEASURE NAME: Emax (%)
Value expressed in %; do not type the unit.

QUERY: Using known records, supply Emax for COc1ccc(CCNc2cc(=O)[nH]c(=O)[nH]2)cc1 [Compound 50]
RESULT: 111

QUERY: Using known records, supply Emax for CCCCCCNc1[nH]c(=O)[nH]c(=O)c1Br [Compound 72]
RESULT: 123

QUERY: Using known records, supply Emax for CCCCCCCCCCNc1cc(=O)n(C)c(=O)[nH]1 [Compound 33]
RESULT: 72

QUERY: Using known records, supply Emax for CC(C)CCCCCNc1cc(=O)[nH]c(=O)[nH]1 [Compound 25]
RESULT: 99

QUERY: Using known records, supply Emax for O=c1cc(N2CCC(Cc3ccccc3)CC2)[nH]c(=O)[nH]1 [Compound 67]
RESULT: 114

QUERY: Using known records, supply Emax for COc1ccc(CCNc2cc(=O)[nH]c(=O)[nH]2)cc1OC [Compound 60]
RESULT: 116

QUERY: Using known records, supply Emax for CCCCCCCCN(C)c1cc(=O)[nH]c(=O)[nH]1 [Compound 38]
RESULT: 107

QUERY: Using known records, supply Emax for O=c1cc(N2CCN(c3ccc(Cl)cc3)CC2)[nH]c(=O)[nH]1 [Compound 68]
RESULT: 117

QUERY: Using known records, supply Emax for Cc1ccccc1CCNc1cc(=O)[nH]c(=O)[nH]1 [Compound 56]
RESULT: 96

QUERY: Using known records, supply Emax for CCCCCNc1cc(=O)[nH]c(=O)[nH]1 [Compound 19, 6-Pentylamino-2,4(1H,3H)-pyrimidinedione]
RESULT: 106

QUERY: Using known records, supply Emax for CCCCCCCCCCNc1cc(=O)[nH]c(=O)[nH]1 [Compound 23, 6-Decylamino-2,4(1H,3H)-pyrimidinedione]
RESULT: 109

QUERY: Using known records, supply Emax for O=c1cc(NCCc2cccs2)[nH]c(=O)[nH]1 [Compound 63]
RESULT: 112
